# System Name: Voltage-gated inwardly rectifying potassium channel KCNH2 (Homo sapiens, UniProt Q12809)
# Sequence (Q12809 whole entry): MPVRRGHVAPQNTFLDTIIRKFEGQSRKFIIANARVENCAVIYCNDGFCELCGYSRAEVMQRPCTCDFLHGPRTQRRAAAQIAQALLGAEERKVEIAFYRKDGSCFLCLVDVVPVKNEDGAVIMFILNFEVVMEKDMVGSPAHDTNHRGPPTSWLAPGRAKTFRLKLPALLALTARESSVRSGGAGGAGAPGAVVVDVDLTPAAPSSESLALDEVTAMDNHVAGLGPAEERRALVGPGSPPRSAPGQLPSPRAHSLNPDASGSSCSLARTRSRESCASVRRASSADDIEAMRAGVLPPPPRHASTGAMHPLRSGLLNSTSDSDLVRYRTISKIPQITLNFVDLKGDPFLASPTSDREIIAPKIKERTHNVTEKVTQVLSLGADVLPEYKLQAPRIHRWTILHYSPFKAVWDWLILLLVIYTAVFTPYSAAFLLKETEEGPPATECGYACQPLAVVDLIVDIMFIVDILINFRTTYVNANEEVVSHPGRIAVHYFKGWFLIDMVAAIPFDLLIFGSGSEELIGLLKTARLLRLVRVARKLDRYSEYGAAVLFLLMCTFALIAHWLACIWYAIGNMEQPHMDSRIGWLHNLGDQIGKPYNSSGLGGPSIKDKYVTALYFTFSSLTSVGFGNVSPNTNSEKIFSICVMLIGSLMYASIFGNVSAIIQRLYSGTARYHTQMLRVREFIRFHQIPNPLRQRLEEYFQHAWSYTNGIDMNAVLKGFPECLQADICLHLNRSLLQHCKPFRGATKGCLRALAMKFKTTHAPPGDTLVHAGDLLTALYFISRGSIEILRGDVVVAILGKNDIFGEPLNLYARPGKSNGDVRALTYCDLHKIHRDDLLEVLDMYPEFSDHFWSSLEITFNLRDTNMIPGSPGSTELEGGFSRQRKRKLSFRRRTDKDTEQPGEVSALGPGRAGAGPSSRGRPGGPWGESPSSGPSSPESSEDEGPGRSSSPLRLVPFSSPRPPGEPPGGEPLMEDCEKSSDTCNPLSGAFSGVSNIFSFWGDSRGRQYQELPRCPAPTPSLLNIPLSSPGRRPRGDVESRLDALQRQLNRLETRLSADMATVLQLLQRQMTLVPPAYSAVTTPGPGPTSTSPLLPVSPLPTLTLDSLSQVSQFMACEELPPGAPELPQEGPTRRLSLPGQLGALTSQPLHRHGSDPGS
Recorded Metric: pIC50
A value of pIC50 is the negative decimal logarithm of a concentration given in moles per litre.

// lookup pIC50 for `O=C(N[C@H]1CC[C@H](CCN2CCN(c3nsc4ccccc34)CC2)CC1)c1ccco1` 5.68

---

# Tested on: Rattus norvegicus
# Test Description: Antipsychotic activity in Sprague-Dawley rat assessed as inhibition of conditioned avoidance behavior at 1.0 to 2.0 mg/kg, ip administered as single dose measured after 1 hr
# Format: functional, organism-based
Calls of active or inactive are those of the source. The rule behind the calls is not given here.
Recorded Metric: inhibition

O=C(Nc1ccccc1)N[C@H]1CC[C@H](CCN2CCN(c3nsc4ccccc34)CC2)CC1 : Active
CN(C)C(=O)N[C@H]1CC[C@H](CCN2CCN(c3cccc(Cl)c3Cl)CC2)CC1 : Active
O=S(=O)(N[C@H]1CC[C@H](CCN2CCN(c3nsc4ccccc34)CC2)CC1)c1cccs1 : Active
O=C(N[C@H]1CC[C@H](CCN2CCN(c3nsc4ccccc34)CC2)CC1)c1ccco1 : Active

---

# System Name: UniProt:P35462
# Sequence (P35462 whole entry): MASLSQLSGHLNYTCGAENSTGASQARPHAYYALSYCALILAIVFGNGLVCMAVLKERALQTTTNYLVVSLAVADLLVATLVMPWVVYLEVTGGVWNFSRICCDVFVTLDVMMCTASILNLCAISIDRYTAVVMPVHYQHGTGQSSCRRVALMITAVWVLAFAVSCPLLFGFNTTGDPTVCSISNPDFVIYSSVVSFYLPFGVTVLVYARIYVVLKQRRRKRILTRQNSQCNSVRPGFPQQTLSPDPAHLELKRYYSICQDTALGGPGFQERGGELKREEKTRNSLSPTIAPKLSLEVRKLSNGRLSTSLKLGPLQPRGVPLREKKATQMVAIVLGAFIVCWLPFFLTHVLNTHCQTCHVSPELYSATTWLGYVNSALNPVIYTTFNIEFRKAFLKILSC
# Test Description: Agonist activity at D3 receptor (unknown origin) expressed in cell membranes after 40 mins by [35S]GTPgammaS binding assay
pEC50: −log10 of the molar value.
Recorded Metric: pEC50

// lookup pEC50 for `O=C(N[C@H]1CC[C@H](CCN2CCN(c3nsc4ccccc34)CC2)CC1)c1ccco1` < 5.00

---

# System Name: 5-hydroxytryptamine receptor 1A (Homo sapiens, UniProt P08908)
# Sequence (P08908 whole entry): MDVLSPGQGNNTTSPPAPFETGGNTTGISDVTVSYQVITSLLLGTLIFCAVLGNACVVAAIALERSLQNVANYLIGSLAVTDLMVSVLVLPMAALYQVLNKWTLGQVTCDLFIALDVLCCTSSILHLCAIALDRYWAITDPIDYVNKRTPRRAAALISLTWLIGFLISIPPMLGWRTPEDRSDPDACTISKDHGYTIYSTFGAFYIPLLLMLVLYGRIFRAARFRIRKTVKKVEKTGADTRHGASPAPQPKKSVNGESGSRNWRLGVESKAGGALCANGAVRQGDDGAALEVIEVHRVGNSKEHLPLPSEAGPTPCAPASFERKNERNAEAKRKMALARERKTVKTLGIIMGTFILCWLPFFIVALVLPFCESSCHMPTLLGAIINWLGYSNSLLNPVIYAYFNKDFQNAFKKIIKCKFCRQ
# Test Description: Displacement of [3H]8-OH-DPAT from recombinant human 5-HT1A receptor expressed in HEK293 cell membranes after 60 mins by scintillation counting method
The reader will find reported pKi values listed item by item below.
A value of pKi is the negative decimal logarithm of a concentration given in moles per litre.

# example entries with known answers
O=C(NC[C@H]1CC[C@H](CN2CCN(c3nsc4ccccc34)CC2)CC1)c1ccco1 : 8.28
O=C(Nc1ccccc1)N[C@H]1CC[C@H](CCN2CCN(c3nsc4ccccc34)CC2)CC1 : 8.85

// lookup pKi for `O=C(N[C@H]1CC[C@H](CCN2CCN(c3nsc4ccccc34)CC2)CC1)c1ccccc1` 8.77

// lookup pKi for `O=C(NCc1ccccc1)N[C@H]1CC[C@H](CCN2CCN(c3nsc4ccccc34)CC2)CC1` 8.28

// lookup pKi for `O=C(N[C@H]1CC[C@H](CCN2CCN(c3nsc4ccccc34)CC2)CC1)C(F)(F)F` 8.96

// lookup pKi for `O=S(=O)(N[C@H]1CC[C@H](CCN2CCN(c3nsc4ccccc34)CC2)CC1)c1cccnc1` 7.96

// lookup pKi for `CCCC(=O)N[C@H]1CC[C@H](CCN2CCN(c3nsc4ccccc34)CC2)CC1` 8.68

// lookup pKi for `CS(=O)(=O)N[C@H]1CC[C@H](CCN2CCN(c3nsc4ccccc34)CC2)CC1` 8.89

// lookup pKi for `O=C(N[C@H]1CC[C@H](CCN2CCN(c3nsc4ccccc34)CC2)CC1)c1cccs1` 8.96

// lookup pKi for `CCOC(=O)N[C@H]1CC[C@@H](CCN2CCN(c3nsc4ccccc34)CC2)CC1` 9.24

// lookup pKi for `O=C(N[C@H]1CC[C@H](CCN2CCN(c3nsc4ccccc34)CC2)CC1)c1cccnc1` 8.68

// lookup pKi for `CN([C@H]1CC[C@H](CCN2CCN(c3nsc4ccccc34)CC2)CC1)S(=O)(=O)c1cccs1` 8.54

// lookup pKi for `CC(=O)N[C@H]1CC[C@H](CCN2CCN(c3nsc4ccccc34)CC2)CC1` 9.16

// lookup pKi for `Nc1ccc2c(N3CCN(CC[C@H]4CC[C@H](NC(=O)c5ccco5)CC4)CC3)nsc2c1` 7.48

// lookup pKi for `CCCS(=O)(=O)N[C@H]1CC[C@H](CCN2CCN(c3nsc4ccccc34)CC2)CC1` 8.96

// lookup pKi for `CCOC(=O)N1CCC(CCN2CCN(c3nsc4ccccc34)CC2)CC1` 8.89

// lookup pKi for `Cc1ccc(S(=O)(=O)N[C@H]2CC[C@H](CCN3CCN(c4nsc5ccccc45)CC3)CC2)cc1` 8.41

// lookup pKi for `O=C(N[C@H]1CC[C@H](CCN2CCN(c3nsc4ccccc34)CC2)CC1)C1CC1` 9.04

// lookup pKi for `O=S(=O)(N[C@H]1CC[C@H](CCN2CCN(c3nsc4ccccc34)CC2)CC1)c1cccs1` 8.96
